SYSTEM: FGFR3 (UniProt P22607)
Sequence (P22607 whole entry, looked up): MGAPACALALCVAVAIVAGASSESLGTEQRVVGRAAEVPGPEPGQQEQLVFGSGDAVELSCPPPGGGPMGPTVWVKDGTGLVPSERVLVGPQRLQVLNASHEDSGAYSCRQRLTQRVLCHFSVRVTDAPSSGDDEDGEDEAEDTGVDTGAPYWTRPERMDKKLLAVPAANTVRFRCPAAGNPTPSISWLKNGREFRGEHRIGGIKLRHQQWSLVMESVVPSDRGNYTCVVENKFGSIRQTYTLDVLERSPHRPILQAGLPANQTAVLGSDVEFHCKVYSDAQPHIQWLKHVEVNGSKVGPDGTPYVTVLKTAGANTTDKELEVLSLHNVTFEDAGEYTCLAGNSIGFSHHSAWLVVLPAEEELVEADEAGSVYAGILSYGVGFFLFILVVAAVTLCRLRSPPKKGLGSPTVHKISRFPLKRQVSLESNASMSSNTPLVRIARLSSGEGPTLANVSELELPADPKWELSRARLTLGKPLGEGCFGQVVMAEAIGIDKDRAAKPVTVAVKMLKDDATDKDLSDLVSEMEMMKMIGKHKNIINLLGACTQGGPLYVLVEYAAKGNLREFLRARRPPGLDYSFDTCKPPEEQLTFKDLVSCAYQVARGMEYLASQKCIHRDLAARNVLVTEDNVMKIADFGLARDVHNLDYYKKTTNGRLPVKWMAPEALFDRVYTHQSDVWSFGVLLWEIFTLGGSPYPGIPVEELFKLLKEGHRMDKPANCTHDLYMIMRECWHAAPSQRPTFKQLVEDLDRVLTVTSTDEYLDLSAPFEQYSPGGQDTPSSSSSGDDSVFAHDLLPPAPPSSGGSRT
ASSAY: phosphorylation enrichment, bacterial display (enrichment ratio); higher = better substrate or ligand; peptides without Tyr show the background
Can you tell me phosphorylation enrichment for the items I'm about to list?

// known answers, use as guide
AIGCEYSEINI [SIGLEC12_Y588_Y586C] :: 2.99
CTLSVYRQLHN [LUZP1_Y1036] :: 0.823
LFSINYLHFGE [KDM4C_Y201_YF] :: 0.899

Now for another entry.
Incoming: Identify measured phosphorylation enrichment obtained with FGFR3 (UniProt P22607) for HFIKLYEEKTG [PARP1_Y618_M615I] .
Outgoing: 0.807

---

SYSTEM: Fes (UniProt P07332)
Sequence (P07332 whole entry, looked up): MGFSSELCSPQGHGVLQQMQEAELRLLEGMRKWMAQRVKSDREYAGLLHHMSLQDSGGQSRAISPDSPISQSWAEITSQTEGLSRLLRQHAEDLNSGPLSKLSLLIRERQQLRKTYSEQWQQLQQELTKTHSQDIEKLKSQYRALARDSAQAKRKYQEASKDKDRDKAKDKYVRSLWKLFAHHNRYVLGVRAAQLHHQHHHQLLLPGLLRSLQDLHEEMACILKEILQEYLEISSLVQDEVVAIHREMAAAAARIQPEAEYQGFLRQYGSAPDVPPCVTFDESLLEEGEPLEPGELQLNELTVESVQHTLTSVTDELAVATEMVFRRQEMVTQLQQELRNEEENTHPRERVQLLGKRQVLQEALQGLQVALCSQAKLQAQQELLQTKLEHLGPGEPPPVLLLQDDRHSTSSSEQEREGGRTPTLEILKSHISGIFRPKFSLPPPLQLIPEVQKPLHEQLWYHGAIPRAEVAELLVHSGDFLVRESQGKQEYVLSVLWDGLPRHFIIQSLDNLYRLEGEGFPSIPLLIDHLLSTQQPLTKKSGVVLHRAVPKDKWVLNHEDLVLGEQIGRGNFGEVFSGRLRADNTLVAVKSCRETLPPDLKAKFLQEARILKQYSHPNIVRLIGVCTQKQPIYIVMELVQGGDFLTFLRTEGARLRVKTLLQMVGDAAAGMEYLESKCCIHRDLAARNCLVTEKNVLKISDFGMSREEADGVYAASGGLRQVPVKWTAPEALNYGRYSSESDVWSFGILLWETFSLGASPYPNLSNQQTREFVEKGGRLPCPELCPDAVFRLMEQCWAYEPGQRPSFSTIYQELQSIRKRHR
ASSAY: phosphorylation enrichment, bacterial display (enrichment ratio); higher = better substrate or ligand; peptides without Tyr show the background
Can you tell me phosphorylation enrichment for the items I'm about to list?
Give bare numbers.

NTYENYWPFYQ [GATM_Y103_K102N] :: 4.54
QKPLDYYRVNL [GALE_Y104] :: 1.27
IHFAIYFLKYS [ARMC9_Y107_L108F] :: 1.41
KKYFSYAWPFY [BRDT_Y291_H288Y] :: 1.03
HITQVYGFYDE [PPP2CA_Y127_Q122H] :: 1.79

Incoming: Hello, please tell me recorded phosphorylation enrichment for this one: NNPAYYVLEGV [INPPL1_Y987]
Outgoing: 0.997

---

SYSTEM: Fyn (UniProt P06241)
Sequence (P06241 whole entry, looked up): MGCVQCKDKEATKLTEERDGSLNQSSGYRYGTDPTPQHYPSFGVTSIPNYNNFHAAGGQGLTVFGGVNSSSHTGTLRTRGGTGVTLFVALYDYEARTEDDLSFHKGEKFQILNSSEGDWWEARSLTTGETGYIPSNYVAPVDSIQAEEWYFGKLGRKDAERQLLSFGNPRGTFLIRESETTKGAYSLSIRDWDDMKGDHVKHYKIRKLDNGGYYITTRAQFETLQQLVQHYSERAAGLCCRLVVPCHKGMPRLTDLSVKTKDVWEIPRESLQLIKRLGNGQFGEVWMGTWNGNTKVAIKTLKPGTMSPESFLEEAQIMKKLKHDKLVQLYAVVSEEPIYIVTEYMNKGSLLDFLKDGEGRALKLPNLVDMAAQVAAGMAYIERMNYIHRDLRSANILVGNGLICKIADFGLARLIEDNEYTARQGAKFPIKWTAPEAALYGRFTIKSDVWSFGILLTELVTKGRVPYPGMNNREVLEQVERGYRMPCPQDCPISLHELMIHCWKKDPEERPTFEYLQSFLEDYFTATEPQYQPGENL
ASSAY: phosphorylation enrichment, bacterial display (enrichment ratio); higher = better substrate or ligand; peptides without Tyr show the background
QUANTITY_MEASURED: phosphorylation enrichment
Give bare numbers.

// known answers, use as guide
EEQKKYYNAVK [SCN5A_Y1494_M1498V] :: 0.429
YEEDSYVTRSQ [RET_Y905_K907T] :: 0.499
TNIKRYHIAKV [HARS1_Y150] :: 0.379
DSGKLYALDVL [INO80_Y1104] :: 0.752
VTHKEYFIFLE [CAMKV_Y95_R92H] :: 0.623
ADSLRYIYPKL [EIF2B3_Y92] :: 0.332

Below are 8 sequences. Give each one its phosphorylation enrichment.
1. FGPPQYNMQFS [ERBB2IP_Y977_I979M_YF]
2. REAAAYLHGRL [AGXT_Y297]
3. LERFIYNRQEF [HLA-DPB1_Y59_E62Q_YF]
4. RVEDACILTCN [CCT6A_Y229_Y229C]
5. VHNLDYYKQTT [FGFR3_Y647_K650Q]
6. EQYELYCEMGS [CBL_Y371]
7. YGGLRCGYGVL [KRTAP20-2_Y13_Y13C]
8. ADKAAYLQSMN [MYH2_Y389_L393M]

Outgoing:
1: 0.456; 2: 0.543; 3: 0.551; 4: 0.551; 5: 0.586; 6: 4.26; 7: 1; 8: 0.415

Below are 7 sequences. Give each one its phosphorylation enrichment.
1. GRTGHYLCNAC [GATA1_Y223_D218G]
2. EIHTQYEAMAS [GFAP_Y242_R239H]
3. VATRWYQSPEL [CDKL5_Y177_R178Q]
4. QRRNVYYYSYL [PTEN_Y176_Y174N]
5. PQAVTYAKVKH [LILRB4_Y360]
6. LGRGKSSEVFE [CSNK2A1_Y50_Y50S]
7. NTADYYDLYGG [PTPN11_Y63_G60A]

Outgoing:
[0.332, 0.514, 0.43, 9.83, 0.294, 0.646, 6.09]

Below are 5 sequences. Give each one its phosphorylation enrichment.
1. IHHIDYYKETT [FGFR1_Y653_K656E]
2. EKKKYYDTKIE [CASP5_Y104]
3. RDLEQYVNNVN [PCDH19_Y1097]
4. CSRRLYQLTKL [AR_Y858_F857L]
5. SLHPGYNFRFA [P2RX7_Y291_Y288H_YF]

Outgoing:
1: 0.549; 2: 0.486; 3: 0.405; 4: 0.621; 5: 0.378

Below are 4 sequences. Give each one its phosphorylation enrichment.
1. LHAAAYQNALA [UQCRC2_Y182_R183Q]
2. REGAKYVSHGT [ASS1_Y113_A118T]
3. TFLRTYTDAMQ [TSPAN7_Y124]
4. LEAVSYSSPYA [RNLS_Y190_R193P]

Outgoing:
1. 0.474
2. 0.363
3. 0.396
4. 0.864

---

SYSTEM: EPHB2 (UniProt P29323)
Sequence (P29323 whole entry, looked up): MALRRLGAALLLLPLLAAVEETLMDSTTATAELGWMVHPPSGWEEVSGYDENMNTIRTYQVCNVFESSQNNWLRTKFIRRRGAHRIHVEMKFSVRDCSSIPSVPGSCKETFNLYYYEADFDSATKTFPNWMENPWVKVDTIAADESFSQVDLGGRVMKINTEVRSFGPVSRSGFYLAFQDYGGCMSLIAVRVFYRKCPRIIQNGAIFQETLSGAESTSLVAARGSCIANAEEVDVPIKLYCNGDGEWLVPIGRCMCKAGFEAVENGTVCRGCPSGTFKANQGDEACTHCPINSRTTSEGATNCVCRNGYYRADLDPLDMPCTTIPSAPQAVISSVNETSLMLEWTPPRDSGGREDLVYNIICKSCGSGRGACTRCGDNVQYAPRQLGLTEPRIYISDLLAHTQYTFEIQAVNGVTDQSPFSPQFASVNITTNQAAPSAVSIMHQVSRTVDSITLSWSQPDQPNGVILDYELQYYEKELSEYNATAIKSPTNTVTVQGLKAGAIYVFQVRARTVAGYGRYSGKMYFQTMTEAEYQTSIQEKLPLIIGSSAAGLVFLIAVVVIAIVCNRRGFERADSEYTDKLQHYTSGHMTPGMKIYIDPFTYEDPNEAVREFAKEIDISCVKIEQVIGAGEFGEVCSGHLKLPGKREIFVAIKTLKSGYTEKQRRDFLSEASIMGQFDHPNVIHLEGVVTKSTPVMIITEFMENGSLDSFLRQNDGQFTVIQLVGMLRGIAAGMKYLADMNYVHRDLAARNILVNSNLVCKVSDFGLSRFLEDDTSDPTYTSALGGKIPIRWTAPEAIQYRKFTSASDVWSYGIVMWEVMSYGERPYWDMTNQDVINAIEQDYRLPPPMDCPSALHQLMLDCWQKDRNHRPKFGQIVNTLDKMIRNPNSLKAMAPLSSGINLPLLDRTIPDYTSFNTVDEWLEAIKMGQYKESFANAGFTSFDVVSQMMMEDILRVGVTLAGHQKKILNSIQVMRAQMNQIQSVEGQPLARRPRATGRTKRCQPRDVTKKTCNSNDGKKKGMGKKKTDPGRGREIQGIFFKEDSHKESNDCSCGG
ASSAY: phosphorylation enrichment, bacterial display (enrichment ratio); higher = better substrate or ligand; peptides without Tyr show the background
Lab note: anything with phosphorylation enrichment at or over 0.6 counts as Fulfilled; the rest go in Not fulfilled.

Example results:
ESMLRYDVYGG [STOX1_Y607_E608D] :: Fulfilled
FQLENYCNGGG [INS_Y108_YF] :: Not fulfilled
CTTIHYNFMRN [TP53_Y234_C238R_YF] :: Fulfilled
AVLSLCASGRT [ACTA2_Y145_Y145C] :: Fulfilled
MFRAGYDTKQE [F10_Y407_C404R] :: Not fulfilled

For the next question, use this sequence.
Incoming: Determine whether this sequence has phosphorylation enrichment no lower than 0.6: VTHKEYFIFLE [CAMKV_Y95_R92H]
Outgoing: Fulfilled

---

Test system: Fer (mouse)
ASSAY: phosphorylation enrichment, bacterial display (enrichment ratio); higher = better substrate or ligand; peptides without Tyr show the background
QUANTITY_MEASURED: phosphorylation enrichment
Answers are plain numbers.

RGEKQYLAAPL [ALOX12_Y295] :: 0.365

Below are 2 sequences. Give each one its phosphorylation enrichment.
1. FSEVRYMKEPF [HIPK4_Y170_V171M_YF]
2. NTADYYDLYGG [PTPN11_Y63_G60A]

Outgoing:
0.36
1.59

---

Can you tell me SH2 binding enrichment for the items I'm about to list?
SYSTEM: c-Src SH2
ASSAY: SH2 binding enrichment of the phosphorylated peptide, bacterial display (enrichment ratio); higher = better substrate or ligand; peptides without Tyr show the background
Answers are plain numbers.

Below are 5 sequences. Give each one its SH2 binding enrichment.
1. IHHIDYYKETT [FGFR1_Y653_K656E]
2. LESETYRRLLD [KRT12_Y429_I426S]
3. RMQLPYDSTWE [PDGFRB_Y589_P584R]
4. LQRVQCDLQKA [DSP_Y1512_Y1512C]
5. KWTVDYLGQVG [TYW5_Y48_S50G]

Outgoing:
1: 1.08; 2: 0.429; 3: 0.91; 4: 0.543; 5: 0.494

Below are 2 sequences. Give each one its SH2 binding enrichment.
1. VTAALYGCLYE [BTD_Y536_R538C]
2. NTILLYHIMAW [GPR143_Y157_S152N]

Outgoing:
0.547
0.577

---

Can you tell me SH2 binding enrichment for the items I'm about to list?
SYSTEM: SHP2-C SH2
ASSAY: SH2 binding enrichment of the phosphorylated peptide, bacterial display (enrichment ratio); higher = better substrate or ligand; peptides without Tyr show the background
Answers are plain numbers.

// known answers, use as guide
ADYYDYGHGLS [KHDRBS3_Y304] :: 0.634
KELAPYDENWF [RPS19_Y48] :: 0.685
DDSSAYCSVDE [BCKDHA_Y345_R346C] :: 0.727
YKEQGYHRLPS [RIN1_Y681_P686S] :: 0.853

Now for another entry.
Incoming: Hello, please tell me recorded SH2 binding enrichment for this one: SIKDKHVTALY [KCNH2_Y611_Y611H]
Outgoing: 0.572

---

SYSTEM: FGFR1 (UniProt P11362)
Sequence (P11362 whole entry, looked up): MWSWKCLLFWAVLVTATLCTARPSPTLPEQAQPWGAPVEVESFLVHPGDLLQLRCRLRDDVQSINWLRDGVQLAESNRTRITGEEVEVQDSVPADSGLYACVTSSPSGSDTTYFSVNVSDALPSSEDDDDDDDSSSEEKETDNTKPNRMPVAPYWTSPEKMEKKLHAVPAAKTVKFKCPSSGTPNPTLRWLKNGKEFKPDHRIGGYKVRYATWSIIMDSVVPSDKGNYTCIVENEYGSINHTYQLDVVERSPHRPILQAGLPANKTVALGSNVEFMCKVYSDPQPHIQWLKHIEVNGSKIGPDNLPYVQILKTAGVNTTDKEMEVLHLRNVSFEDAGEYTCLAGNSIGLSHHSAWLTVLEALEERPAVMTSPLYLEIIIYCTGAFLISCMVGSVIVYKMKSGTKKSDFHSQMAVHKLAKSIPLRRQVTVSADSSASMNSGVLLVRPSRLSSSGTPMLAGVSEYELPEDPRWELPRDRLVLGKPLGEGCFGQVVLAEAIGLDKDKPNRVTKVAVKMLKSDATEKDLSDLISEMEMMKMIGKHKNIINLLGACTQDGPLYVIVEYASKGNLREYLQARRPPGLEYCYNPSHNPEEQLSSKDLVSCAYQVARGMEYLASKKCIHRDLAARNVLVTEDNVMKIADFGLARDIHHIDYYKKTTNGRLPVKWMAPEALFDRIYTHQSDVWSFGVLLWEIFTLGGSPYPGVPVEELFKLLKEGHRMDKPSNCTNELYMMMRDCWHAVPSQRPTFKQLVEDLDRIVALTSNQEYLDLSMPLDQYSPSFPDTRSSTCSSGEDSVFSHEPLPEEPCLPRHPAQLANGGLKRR
ASSAY: phosphorylation enrichment, bacterial display (enrichment ratio); higher = better substrate or ligand; peptides without Tyr show the background
QUANTITY_MEASURED: phosphorylation enrichment
Give bare numbers.

// known answers, use as guide
ISDNAYQFMLT [MYH7_Y162_YF] :: 1.83
YDGKDYIALNE [HLA-A_Y147] :: 0.843
EKEQNYDLTQV [ECD_Y448_E452Q] :: 0.612
VNFDDYTVNLG [GFPT1_Y367] :: 0.705
STSYDYCRVPM [BST2_Y8] :: 7.46

Below are 6 sequences. Give each one its phosphorylation enrichment.
1. KELAPYDENWF [RPS19_Y48]
2. KNEVLYDEENH [ARFGEF1_Y314_G316E]
3. FSKQIYKGMVA [PCDH15_Y931_R929Q]
4. HEKKVYSFCGT [RPS6KA3_Y226_A225V]
5. IRTIDYRYTVC [IDS_Y497_W502C]
6. KLFFIYTPGTT [SLC27A4_Y245_S247P_YF]

Outgoing:
[0.563, 0.591, 0.337, 0.74, 0.555, 0.553]
